Assay: soluble on expression in E. coli; label from the status in PepcDB or PDB records

{"columns": ["CHAIN", "soluble on expression in E. coli"],
 "data": [
  ["MQEIGILENLQKSLALKEGMLSYEMLGKSLSYNPYLPRVIPQTKDCVFVTPDEVLEKLLKENTHTDCVIVNFKGLYEIGAPSVFNLEVLGLLRRHASSLIVHQDLFISHYQLLESLVQGSDGVVLDEELLKEDLKGMVEFSWRLGLSVFVETHKQDYTHLKDLGVLGVLEKVPHSQNQKRIVFLD", "not soluble"],
  ["MGQNQFRWSNEQLREHVEVIDGTRSPHIVLRNATYLNSYIREWMQANIWIYDDRIIYVGEKLPEQLHECEVIDCDGKYVVPSYIEPHAHPYQLYNPETLANHAMQFGTTTFINDNLTLFFTLKRELEHHHHHH", "not soluble"],
  ["MGSDKIHHHHHHMANVTPDLVKALFVGFGKNFKDGLAKAPSQYTEIATVVKSTTASNTYAWLGQMPGLTEWIGDRTLTAIQSHGYSIVNKKWANGVEIQRTDIEDDNVGVYSPLIEELGRAAGEKADELVFGALTAGFKTACYDGQYFFDTDHPVGANVDGTNQKSVSNITDDSTGVTEANAWYLLDCSRSLKPIIYQERKAPTPAQITDANDEKVFMKDVFTYGVDSRSNVGYGFWQMAHAVKGKLTAENLWKAIEAMRAVRGDGDKRLAIRPTHIVVPPSLAQAATKLLERELRAEDGVAVDNEFKRMNLKLIVGDYL", "not soluble"]
]}

Origin of the recorded values: the DeepSol protein solubility set
